These entries and their values trace back to ChEMBL document CHEMBL2010652.

tested_system: Steryl-sulfatase (Homo sapiens, UniProt P08842)
Sequence (P08842 whole entry): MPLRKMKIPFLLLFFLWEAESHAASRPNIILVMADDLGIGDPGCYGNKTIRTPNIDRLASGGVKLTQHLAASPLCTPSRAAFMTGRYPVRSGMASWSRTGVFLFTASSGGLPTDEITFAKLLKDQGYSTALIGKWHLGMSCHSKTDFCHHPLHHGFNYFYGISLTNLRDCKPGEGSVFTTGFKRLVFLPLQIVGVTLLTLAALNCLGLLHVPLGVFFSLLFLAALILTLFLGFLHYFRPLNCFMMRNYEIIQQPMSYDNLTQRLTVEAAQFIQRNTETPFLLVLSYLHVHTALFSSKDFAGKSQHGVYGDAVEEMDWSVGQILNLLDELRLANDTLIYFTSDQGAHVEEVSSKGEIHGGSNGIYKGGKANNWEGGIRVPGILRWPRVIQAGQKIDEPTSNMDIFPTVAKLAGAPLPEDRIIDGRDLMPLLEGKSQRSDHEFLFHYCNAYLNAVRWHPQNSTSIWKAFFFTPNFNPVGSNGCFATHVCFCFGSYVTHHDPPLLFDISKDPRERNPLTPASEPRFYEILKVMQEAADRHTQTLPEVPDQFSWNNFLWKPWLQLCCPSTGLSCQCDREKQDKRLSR
pIC50: −log10 of the molar value.
Label Y when pIC50 is at or above 8; otherwise label N.

C[C@]12CC[C@@H]3c4cc(Cl)c(OS(N)(=O)=O)cc4CC[C@H]3[C@@H]1CCC2=O :: Y
C[C@]12CC[C@@H]3c4cc(F)c(OS(N)(=O)=O)cc4CC[C@H]3[C@@H]1CCC2=O :: Y
C[C@]12CC[C@@H]3c4cc(C#N)c(OS(N)(=O)=O)cc4CC[C@H]3[C@@H]1CCC2=O :: Y
C[C@]12CC[C@@H]3c4cc([N+](=O)[O-])c(OS(N)(=O)=O)cc4CC[C@H]3[C@@H]1CCC2=O :: N
C[C@]12CC[C@@H]3c4cc(C(F)F)c(OS(N)(=O)=O)cc4CC[C@H]3[C@@H]1CCC2=O :: Y

# check: pIC50 of C[C@@]12CCC[C@H]1[C@@H]1CCc3cc(OS(N)(=O)=O)ccc3[C@H]1CC2 is greater than or equal to 8
N

# check: pIC50 of CCCc1cc2c(c(CCC)c1OS(N)(=O)=O)CC[C@@H]1[C@@H]2CC[C@]2(C)C(=O)CC[C@@H]12 is greater than or equal to 8
N

###

Entries and their measured log10 of IC50 follow.
tested_system: Steryl-sulfatase (Homo sapiens)
Sequence (P08842 whole entry): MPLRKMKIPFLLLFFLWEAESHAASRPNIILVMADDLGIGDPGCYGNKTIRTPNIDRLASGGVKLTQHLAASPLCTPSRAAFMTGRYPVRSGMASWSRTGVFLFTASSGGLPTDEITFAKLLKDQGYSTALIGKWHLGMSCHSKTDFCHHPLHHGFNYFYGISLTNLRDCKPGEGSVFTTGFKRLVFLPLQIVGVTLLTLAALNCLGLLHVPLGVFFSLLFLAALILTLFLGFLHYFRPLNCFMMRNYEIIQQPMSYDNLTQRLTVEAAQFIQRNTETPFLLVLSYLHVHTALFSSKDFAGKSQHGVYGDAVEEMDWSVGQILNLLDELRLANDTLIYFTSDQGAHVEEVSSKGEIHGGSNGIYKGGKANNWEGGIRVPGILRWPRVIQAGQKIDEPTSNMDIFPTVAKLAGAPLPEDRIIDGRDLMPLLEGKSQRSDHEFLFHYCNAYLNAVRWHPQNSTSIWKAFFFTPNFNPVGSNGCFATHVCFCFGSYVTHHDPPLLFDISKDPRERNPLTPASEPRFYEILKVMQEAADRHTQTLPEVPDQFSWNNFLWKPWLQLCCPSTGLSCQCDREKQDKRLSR
assay_text: Inhibition of steroid sulfatase in human MCF7 cells using [3H]E1S as substrate after 20 hrs by scintillation spectrometry
Format: cell-based
A difference of one corresponds to tenfold IC50; all values are log10 with IC50 in nM.

In the examples that follow, each entry is paired with its recorded log10 of IC50.
C[C@]12CC[C@@H]3c4cc(I)c(OS(N)(=O)=O)cc4CC[C@H]3[C@@H]1CCC2=O :: -0.09
C=CCc1cc2c(cc1OS(N)(=O)=O)CC[C@@H]1[C@@H]2CC[C@]2(C)C(=O)CC[C@@H]12 :: 1.57
C[C@]12CC[C@@H]3c4cc([N+](=O)[O-])c(OS(N)(=O)=O)cc4CC[C@H]3[C@@H]1CCC2=O :: 0.92
C[C@]12CC[C@@H]3c4ccc(OS(N)(=O)=O)c([N+](=O)[O-])c4CC[C@H]3[C@@H]1CCC2=O :: -2.00

Check the records and state log10 of IC50 for C[C@]12CC[C@@H]3c4ccc(OS(N)(=O)=O)c(Br)c4CC[C@H]3[C@@H]1CCC2=O
1.62

Check the records and state log10 of IC50 for CCCc1cc2c(cc1OS(N)(=O)=O)CC[C@@H]1[C@@H]2CC[C@]2(C)C(=O)CC[C@@H]12
2.37

Check the records and state log10 of IC50 for C[C@]12CC[C@@H]3c4cc(Br)c(OS(N)(=O)=O)cc4CC[C@H]3[C@@H]1CCC2=O
-0.96

Check the records and state log10 of IC50 for C[C@]12CC[C@@H]3c4cc(Cl)c(OS(N)(=O)=O)cc4CC[C@H]3[C@@H]1CCC2=O
-0.36

Check the records and state log10 of IC50 for C[C@]12CC[C@@H]3c4ccc(OS(N)(=O)=O)cc4CC[C@H]3[C@@H]1CCC2=O [EMATE]
-0.08

Check the records and state log10 of IC50 for C[C@]12CC[C@@H]3c4cc(F)c(OS(N)(=O)=O)cc4CC[C@H]3[C@@H]1CCC2=O
-0.21

Check the records and state log10 of IC50 for C[C@]12CC[C@@H]3c4cc(C#N)c(OS(N)(=O)=O)cc4CC[C@H]3[C@@H]1CCC2=O
0.08

###

Entries and their measured IC50 follow.
tested_system: Steryl-sulfatase (Homo sapiens)
Report the figure in µM without appending any unit label.

In the examples that follow, each entry is paired with its recorded IC50.
CCc1cc2c(cc1OS(N)(=O)=O)CC[C@@H]1[C@@H]2CC[C@]2(C)C(=O)CC[C@@H]12 :: 0.82
C[C@]12CC[C@@H]3c4ccc(OS(N)(=O)=O)c(Br)c4CC[C@H]3[C@@H]1CCC2=O :: 1.2
C[C@]12CC[C@@H]3c4ccc(OS(N)(=O)=O)cc4CC[C@H]3[C@@H]1CCC2=O [EMATE] :: 0.018

// next item, IC50 requested
Check the records and state IC50 for CCCc1cc2c(cc1OS(N)(=O)=O)CC[C@@H]1[C@@H]2CC[C@]2(C)C(=O)CC[C@@H]12
2.9

###

UniProt:P08842 data, read-out pIC50
# log scale: pIC50 equals minus log10 of the concentration in mol/L

C[C@]12CC[C@@H]3c4ccc(OS(N)(=O)=O)c([N+](=O)[O-])c4CC[C@H]3[C@@H]1CCC2=O :: 9.10

// next item, pIC50 requested
Check UniProt:P08842 data and give pIC50 for C=CCc1cc2c(cc1OS(N)(=O)=O)CC[C@@H]1[C@@H]2CC[C@]2(C)C(=O)CC[C@@H]12 .
5.60
